Kd for assorted binders
- TARGET DESC: PCSK9
- Sequence (Q8NBP7 31-152, chain 1 of 2): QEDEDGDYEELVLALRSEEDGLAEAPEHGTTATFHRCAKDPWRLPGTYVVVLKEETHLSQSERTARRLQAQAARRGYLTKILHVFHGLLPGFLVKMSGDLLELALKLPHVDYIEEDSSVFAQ
- Sequence (Q8NBP7 153-692, chain 2 of 2): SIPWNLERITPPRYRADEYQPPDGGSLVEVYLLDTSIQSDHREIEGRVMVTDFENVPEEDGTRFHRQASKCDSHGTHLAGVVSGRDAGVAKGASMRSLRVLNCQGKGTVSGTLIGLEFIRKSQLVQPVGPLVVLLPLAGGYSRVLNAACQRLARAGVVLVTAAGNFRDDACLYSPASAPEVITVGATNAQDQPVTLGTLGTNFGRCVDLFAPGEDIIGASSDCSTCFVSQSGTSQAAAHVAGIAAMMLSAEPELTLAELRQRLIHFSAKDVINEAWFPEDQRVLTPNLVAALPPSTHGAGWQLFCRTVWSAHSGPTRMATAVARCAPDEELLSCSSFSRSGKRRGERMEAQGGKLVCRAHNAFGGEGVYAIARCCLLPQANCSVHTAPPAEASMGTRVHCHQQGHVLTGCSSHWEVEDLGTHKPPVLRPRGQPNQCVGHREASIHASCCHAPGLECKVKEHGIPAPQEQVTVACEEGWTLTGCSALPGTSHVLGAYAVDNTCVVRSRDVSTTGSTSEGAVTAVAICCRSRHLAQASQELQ
- TEST NAME: Biacore SPR
Provide only the numeric value, understood in nM.

# BINDER, ASSAY METRIC, MEASUREMENT
rows = [
    ("1B20 variant G5 (antibody, part only; not given: light chain, V domains shown, part only) VH: QVQLVQSGAEVKKPGESLKISCKGSGYSFTDYYISWVRQMPGKGLEWMGLIYPGDSYTRYSPNFQGQVTISADKSISTAYLQWSSLKASDTAMYYCARDHGYRPYSDIWGQGTLVTVSS", "Kd", 1.65),
    ("1B20 variant E8 (antibody, part only; not given: light chain, probably the common parent VL, V domains shown, part only) VH: QVQLVQSGAEVKKPGESLKISCKGSGYSFTNYYITWVRQMPGKGLEWMGMIYPGDSYTRYSPKFQGQVTISADKSISTAYLQWSSLKASDTAMYYCARDHWSKPLSDVWGQGTLVTVSS", "Kd", 1.62),
    ("1B20 variant E3 (antibody, part only; not given: light chain, V domains shown, part only) VH: QVQLVQSGAEVKKPGESLKISCKGSGYSFTDYYISWVRQMPGKGLEWMGMIYPGDSYTSYSPRFQGQVTISADKSISTAYLQWSSLKASDTAMYYCARDYWYRPFSDIWGQGTLVTVSS", "Kd", 2.62),
]

Okay, now this binder:
Ask: # get_value(readout='Kd', item= 1B20 variant G2 (antibody, part only; not given: light chain, probably the common parent VL, V domains shown, part only) VH: QVKLVQSGAEVKKPGESLKISCKGSGYSFTDYYISWVRQMPGKGLEWMGIIYPGDSYTHYNPKFQGQVTISADKSISTAYLQWSSLKASDTAMYYCARDRWSKPLFDVWGQGTLVTVSS )
Reply: 2.11
